Just for reference, ChEMBL document CHEMBL1130069 is where these values come from.

Below, each entry is listed alongside its reported inhibition.
- SUBJECT OF TEST: Polyunsaturated fatty acid 5-lipoxygenase (Rattus norvegicus)
- ASSAY NAME: Percent inhibition of LTE4 formation in rats from peritoneal fluids at a dose of 200 micro mol/Kg
- Type: functional
EXPERIMENTAL READOUT: inhibition (%)

{"COMPOUND": "Cc1cc(C(C)N(O)C(N)=O)c(C)o1 (centres undefined)", "SUBJECT OF TEST": "Polyunsaturated fatty acid 5-lipoxygenase (Rattus norvegicus)", "EXPERIMENTAL READOUT": "inhibition", "RECORDED VALUE": 1}
{"COMPOUND": "CC(C)(C#Cc1ccc(Oc2ccc(F)cc2)o1)N(O)C(N)=O", "SUBJECT OF TEST": "Polyunsaturated fatty acid 5-lipoxygenase (Rattus norvegicus)", "EXPERIMENTAL READOUT": "inhibition", "RECORDED VALUE": 71}
{"COMPOUND": "CC(c1ccc(/C=C/c2ccccc2)o1)N(O)C(N)=O (centres undefined)", "SUBJECT OF TEST": "Polyunsaturated fatty acid 5-lipoxygenase (Rattus norvegicus)", "EXPERIMENTAL READOUT": "inhibition", "RECORDED VALUE": 1}
{"COMPOUND": "NC(=O)N(O)CC1CC1c1ccoc1 (centres undefined)", "SUBJECT OF TEST": "Polyunsaturated fatty acid 5-lipoxygenase (Rattus norvegicus)", "EXPERIMENTAL READOUT": "inhibition", "RECORDED VALUE": 1}
